The values you see were collected from patent US20240025997A1.

Recorded koff for the following binders
Molecular target: soluble rhesus ILT2-ECD (rhesus macaque)
Sequence (chain, as listed by the source limits assumed, form in doubt): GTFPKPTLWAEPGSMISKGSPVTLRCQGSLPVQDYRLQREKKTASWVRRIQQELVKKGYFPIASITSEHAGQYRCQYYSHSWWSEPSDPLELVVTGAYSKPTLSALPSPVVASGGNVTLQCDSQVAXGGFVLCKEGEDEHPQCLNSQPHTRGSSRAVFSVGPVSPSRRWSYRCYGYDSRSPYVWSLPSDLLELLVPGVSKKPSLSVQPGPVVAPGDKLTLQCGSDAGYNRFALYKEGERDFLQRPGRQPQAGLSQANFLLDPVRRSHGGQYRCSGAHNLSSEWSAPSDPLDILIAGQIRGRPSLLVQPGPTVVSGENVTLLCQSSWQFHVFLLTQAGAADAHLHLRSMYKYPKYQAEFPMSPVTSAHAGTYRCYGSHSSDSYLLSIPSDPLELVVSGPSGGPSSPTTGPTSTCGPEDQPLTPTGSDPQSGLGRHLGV
Test: SPR (Biacore), antibody captured on Protein A chip, soluble rhesus ILT2-ECD injected (1.6-200 nM), 25 C
Measured Quantity: koff (s⁻¹)

>>> recorded_measurement("anti-ILT4 antibody 47C8 (antibody, V domains shown) VH: EVQLQQSGPDLVKPGASVKISCKASGYSFTGYYMHWVKQSHGKSLEWIGRVYPNNGDTSYNQKFKVKAILTVDKSSSTAYMELRSLTSEDSAVYYCARGATVVESLFAYWGQGTLVTVSA VL: DIVLTQSPASLAVSLGQRATISCRASESVDNYGNNFLHWYQQKPGQPPKLLIYRTSNLESGIPARFSGSGSRTDFTLTINPVEADDVATYYCQQSNEDPYTFGGGTKLEIK")
0.0014
>>> recorded_measurement("anti-ILT2/ILT4 antibody 73D1 (antibody, V domains shown) VH: AVQLQQSGPELVKPGASVKISCKASGYTFTDYYINWVKQSHGKSLQWIGNVNPNDGGTTYNQKFKGKATLTVDKSSSTAYMELRSLTSEDSAVYYCARREIYFYGTIYYYAMDYWGQGTSVTVSS VL: DIVLTQSPASLAVSLGQRATISCRASESVDYYGNSFMYWYQQKPGRPPNLLIYFASNLESGVPARFSGSGSRTDFTLTIDPVEADDAATYYCQQNNEDPWTFGGGTKLEIK")
"6e-05"
>>> recorded_measurement("anti-ILT4 antibody 48A5 (antibody, V domains shown) VH: QIQLVQSGPELKKPGETVKISCKASGYTFTNYGMNWVKQAPGKGLKWMGWINTYIGEPIYADDFKGRFAFSLETSASTAYLQINNLKNEDMATYFCARRSDYDGYAMDYWGQGTSVTVSS VL: DIVMSQSPSSLAVSVGERVTMSCKSSQSLLYSGNQKNYLAWYQQKPGQSPKLLIYWASTRESGVPDRFTGSGSGTDFTLTISSVKAEDLAVYYCQQHDSYPTFGGGSRLEIK")
0.0026
>>> recorded_measurement("anti-ILT2/ILT4 antibody 51A1 (antibody, V domains shown) VH: EVQLVESGGGLVQPKGSLKLSCAASGFTFNTYAMHWVRQAPGKGLEWVARIRSKSSNYATYYADSVKDRFTISRDDSQSMLYLQMNNLKTEDTAMYYCVRDGIYYYGTMYYYAMDYWGQGTSVTVSS VL: NIVLTQSPASLAVSLGQRATISCRASESVDYYGNSFMYWYQQKPGQPPKLLIYFASNLESGVPARFSGSGSRTDFTLTIDPVEAADAASYYCQQNNEDPWTFGGGTKLEIK")
"2.1e-05"
